biological target: P2X purinoceptor 7 (Homo sapiens); assay: Antagonist activity at human P2X7 receptor expressed in HEK293 cells assessed as inhibition of BzATP-induced ethidium bromide uptake after 2 hrs by fluorescence analysis; type: functional, cell-based
Sequence (Q99572 whole entry): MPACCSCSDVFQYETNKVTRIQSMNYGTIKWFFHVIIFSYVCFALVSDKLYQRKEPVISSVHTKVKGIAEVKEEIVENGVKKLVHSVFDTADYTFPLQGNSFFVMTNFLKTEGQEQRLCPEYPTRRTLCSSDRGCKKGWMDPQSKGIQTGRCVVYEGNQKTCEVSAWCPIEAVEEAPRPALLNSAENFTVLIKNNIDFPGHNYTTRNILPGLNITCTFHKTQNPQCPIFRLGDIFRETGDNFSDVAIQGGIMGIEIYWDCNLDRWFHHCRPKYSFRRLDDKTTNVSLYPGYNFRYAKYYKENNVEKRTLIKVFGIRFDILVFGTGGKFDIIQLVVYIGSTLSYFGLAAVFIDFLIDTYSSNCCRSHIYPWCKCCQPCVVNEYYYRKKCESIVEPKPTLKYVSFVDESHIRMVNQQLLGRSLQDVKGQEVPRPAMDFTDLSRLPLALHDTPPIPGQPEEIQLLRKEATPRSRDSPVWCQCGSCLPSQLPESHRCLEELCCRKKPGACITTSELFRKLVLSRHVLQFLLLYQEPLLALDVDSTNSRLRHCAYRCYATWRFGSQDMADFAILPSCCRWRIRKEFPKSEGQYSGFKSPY
pIC50: −log10 of the molar value.
readout.label: pIC50

Solved cases (5 shown):
compound	pIC50
O=C(CC1CCCCCC1)NNc1c(Cl)cncc1Cl	6.70
O=C(NNc1c(Cl)cncc1Cl)C1C2CC3CC(C2)CC1C3 (stereo not drawn)	7.11
O=C(NNc1c(Cl)cncc1Cl)C1CC2CCC1C2 (stereo not drawn)	5.55
O=C(CC1CCCCC1)NNc1c(Cl)cncc1Cl	6.14
O=C(NNc1c(Cl)cncc1Cl)OCc1ccccc1	6.43

P. O=C(NNc1c(Cl)cncc1Cl)C1Cc2ccccc21 (racemic)
Q. O=C(CCCCCCc1ccccc1)NNc1c(Cl)cncc1Cl
R. O=C(NNc1c(Cl)cncc1Cl)C1Cc2ccccc2C1
Ordering criterion: pIC50; begin with the maximum. As an answer, provide the labels arranged in the order called for. P, Q, R
(P: 6.49, Q: 6.02, R: 5.38)

* * *

target: P2X purinoceptor 7 (Homo sapiens); assay: Antagonist activity at human P2X7 receptor expressed in HEK293 cells assessed as inhibition of BzATP-induced ethidium bromide uptake after 2 hrs by fluorescence analysis; assay type: functional, cell-based
readout.label: IC50 (nM)

Solved cases (6 shown):
compound	IC50 (nM)
O=C(CCc1ccc(Cl)cc1)NNc1c(Cl)cncc1Cl	1100
O=C(Cc1ccccc1)NNc1c(Cl)cncc1Cl	1100
O=C(CCCc1ccccc1)NNc1c(Cl)cncc1Cl	770
O=C(CCc1ccccc1)NNc1c(Cl)cccc1Cl	1400
O=C(CCc1cccc2ccccc12)NNc1c(Cl)cncc1Cl	1200
O=C(NNc1c(Cl)cncc1Cl)C1CCc2ccccc2C1 (racemic)	1100

a. Cc1cccc(C)c1NNC(=O)CCc1ccccc1
b. Cc1ccc(CCC(=O)NNc2c(Cl)cncc2Cl)cc1
Which of the two gives a bigger number for IC50: a or b ? Refer to your chosen entry by its label in the reply. b

This collection of values is drawn from ChEMBL document CHEMBL2046433.
